tested.system: Met (phospho-Met, HGF-stimulated PC-3 prostate cancer cells) (Homo sapiens (Human), UniProt P08581)
Sequence (P08581 25-1390): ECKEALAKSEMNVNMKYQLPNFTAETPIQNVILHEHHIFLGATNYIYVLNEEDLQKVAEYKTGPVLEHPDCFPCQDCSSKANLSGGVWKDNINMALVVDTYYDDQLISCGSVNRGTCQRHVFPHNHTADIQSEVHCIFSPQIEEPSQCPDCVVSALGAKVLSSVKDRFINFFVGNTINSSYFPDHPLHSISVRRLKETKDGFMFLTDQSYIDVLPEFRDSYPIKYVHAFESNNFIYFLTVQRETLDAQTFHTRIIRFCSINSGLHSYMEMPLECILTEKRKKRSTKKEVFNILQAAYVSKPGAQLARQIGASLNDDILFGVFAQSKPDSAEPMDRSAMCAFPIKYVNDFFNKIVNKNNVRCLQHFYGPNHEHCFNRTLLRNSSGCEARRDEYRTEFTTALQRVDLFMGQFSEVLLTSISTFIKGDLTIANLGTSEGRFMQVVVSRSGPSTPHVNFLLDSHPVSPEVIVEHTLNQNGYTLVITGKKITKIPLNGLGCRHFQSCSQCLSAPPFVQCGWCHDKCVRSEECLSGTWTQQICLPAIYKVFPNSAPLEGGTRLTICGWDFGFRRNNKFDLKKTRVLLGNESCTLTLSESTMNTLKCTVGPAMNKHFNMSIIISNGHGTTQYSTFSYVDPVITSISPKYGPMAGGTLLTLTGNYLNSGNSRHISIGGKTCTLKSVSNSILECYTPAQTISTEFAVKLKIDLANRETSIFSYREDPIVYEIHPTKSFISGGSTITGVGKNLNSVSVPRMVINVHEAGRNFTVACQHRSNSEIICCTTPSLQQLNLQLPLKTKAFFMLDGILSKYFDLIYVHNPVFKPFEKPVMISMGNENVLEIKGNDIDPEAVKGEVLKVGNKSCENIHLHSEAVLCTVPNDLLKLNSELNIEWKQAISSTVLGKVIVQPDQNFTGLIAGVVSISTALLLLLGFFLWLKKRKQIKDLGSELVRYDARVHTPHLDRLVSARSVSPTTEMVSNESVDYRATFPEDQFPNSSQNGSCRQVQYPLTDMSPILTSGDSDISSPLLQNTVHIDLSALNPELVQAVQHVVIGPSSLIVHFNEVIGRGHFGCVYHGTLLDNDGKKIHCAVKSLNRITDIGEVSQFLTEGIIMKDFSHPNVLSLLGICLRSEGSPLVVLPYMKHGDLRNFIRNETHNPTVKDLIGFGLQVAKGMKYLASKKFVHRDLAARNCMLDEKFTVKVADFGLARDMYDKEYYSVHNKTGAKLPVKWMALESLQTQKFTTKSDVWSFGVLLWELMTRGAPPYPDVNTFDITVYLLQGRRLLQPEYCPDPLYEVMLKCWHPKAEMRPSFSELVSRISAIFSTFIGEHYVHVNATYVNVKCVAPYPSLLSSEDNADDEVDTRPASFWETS
assay.explanation: Met autophosphorylation ELISA in PC-3 cells (Example F)
Type: cell-based
condition: cellular activity, PC-3 cells; read-out: c-Met IC50
pIC50: −log10 of the molar value.
Measured pIC50 accompanies every entry in the list below.

Below, each entry is followed by its recorded pIC50 result.
Value of measured pIC50 for the entry COc1cc2nccc(Oc3ccc(NC(=O)c4c5n(cc(-c6ccc(F)cc6)c4=O)CCOC5)cc3F)c2nc1OC [Compound 808] : > 7.00

Value of measured pIC50 for the entry COc1cc2nccc(Oc3ccc(NC(=O)c4c(C)n(C)c(C)c(-c5ccc(F)c(C)c5)c4=O)cc3F)c2nc1OC [Compound 821] : > 7.00

Value of measured pIC50 for the entry COc1nc2c(Oc3ccc(NC(=O)c4c(C)nc(C)c(-c5ccc(F)cc5C)c4O)cc3F)ccnc2cc1N [Compound 804] : > 7.00

New cases:
Value of measured pIC50 for the entry COc1cnc2c(Oc3ccc(NC(=O)c4c(C)n(C)c(C)c(-c5ccc(F)cc5F)c4=O)cc3F)ccnc2c1 [Compound 824] : > 7.00

Value of measured pIC50 for the entry COc1cnc2c(Oc3ccc(NC(=O)c4c5n(cc(-c6ccc(F)cc6)c4=O)CCOC5)cc3F)ccnc2c1 [Compound 809] : > 7.00

Value of measured pIC50 for the entry COc1cc2nccc(Oc3ccc(NC(=O)c4c(C)n(CC(F)F)cc(-c5ccc(F)c(C)c5)c4=O)cc3F)c2nc1OC [Compound 812] : > 7.00

Value of measured pIC50 for the entry COc1cc2nccc(Oc3ccc(NC(=O)c4c(C)n(CC(F)F)cc(-c5ccc(F)c(F)c5)c4=O)cc3F)c2nc1OC [Compound 816] : > 7.00
